# Test system: protein farnesyltransferase (Trypanosoma brucei)
# Experiment notes: Inhibition of against Trypanosoma brucei protein farnesyltransferase at 50 nM concentration
Measured metric: inhibition (%)

Worked cases, inhibition given:
[[record]]
compound = "CSCC[C@H](NC(=O)c1ccc(CNCc2c[nH]cn2)cc1-c1ccccc1C)C(=O)OC1CCCCC1"
value_observed = 4.5

[[record]]
compound = "N#Cc1ccc(Cn2cncc2CNc2ccc(C(=O)Nc3cccc([N+](=O)[O-])c3)c(-c3ccccc3)c2)cc1"
value_observed = 9.1

[[record]]
compound = "CSCC[C@H](NC(=O)c1ccc(CNCc2c[nH]cn2)cc1-c1ccccc1C)C(=O)OC(C)C"
value_observed = 6.2

[[record]]
compound = "CSCC[C@H](NC(=O)c1ccc(CNCc2c[nH]cn2)cc1-c1ccccc1C)C(=O)O"
value_observed = 96.1

[[record]]
compound = "CSCC[C@H](NC(=O)c1ccc(NCc2cn(Cc3ccc(-c4ccccc4)cc3)cn2)cc1-c1ccccc1)C(=O)O"
value_observed = 4.5


I = N#CCNC(=O)c1ccc(NCc2cncn2Cc2ccc(C#N)cc2)cc1-c1ccccc1
II = CSCC[C@H](NC(=O)c1ccc(NCc2cncn2Cc2ccc(-c3ccccc3)cc2)cc1-c1ccccc1)C(=O)O
// max by inhibition over [ I , II ] Field: selected label. Fill in the label of the entry you choose.
II
